# IC50 measurements, system: mitochondrial membrane enzyme glutaminase (Homo sapiens, UniProt O94925)
# Sequence (O94925 73-669 limits assumed): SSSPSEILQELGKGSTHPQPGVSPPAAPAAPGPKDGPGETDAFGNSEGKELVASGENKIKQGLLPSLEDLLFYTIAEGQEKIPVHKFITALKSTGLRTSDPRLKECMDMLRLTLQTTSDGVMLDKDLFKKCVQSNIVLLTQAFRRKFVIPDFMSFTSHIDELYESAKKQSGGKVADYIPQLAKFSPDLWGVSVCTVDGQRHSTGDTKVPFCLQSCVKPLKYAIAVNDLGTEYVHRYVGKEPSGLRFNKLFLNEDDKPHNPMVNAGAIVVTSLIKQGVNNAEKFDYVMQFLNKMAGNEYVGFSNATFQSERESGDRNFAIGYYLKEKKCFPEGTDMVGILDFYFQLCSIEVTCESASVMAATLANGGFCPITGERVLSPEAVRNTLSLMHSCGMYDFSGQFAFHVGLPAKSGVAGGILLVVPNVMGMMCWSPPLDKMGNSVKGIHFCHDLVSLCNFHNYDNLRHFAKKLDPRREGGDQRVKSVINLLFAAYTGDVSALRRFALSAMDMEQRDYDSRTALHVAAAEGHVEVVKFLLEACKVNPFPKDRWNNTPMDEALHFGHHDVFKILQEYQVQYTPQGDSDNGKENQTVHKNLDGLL
Where a name gives a salt, the structure may show the parent alone.
QUANTITY NAME: IC50 (mM)

[[record]]
molecule = "COC(=O)[C@@H](N)Cn1ccnc1N [Example 5, dihydrochloride]"
quantity_name = "IC50"
value_reported = 40

[[record]]
molecule = "CCn1ccnc1N.Cl [2-Amino-1-ethylimidazole hydrochloride]"
quantity_name = "IC50"
value_reported = 50

[[record]]
molecule = "CN1CCN=C1N [hydrochloride]"
quantity_name = "IC50"
value_reported = 100

[[record]]
molecule = "Cl.Cn1ccnc1N [2-Amino-1-methylimidazole hydrochloride]"
quantity_name = "IC50"
value_reported = 30


These measurements were taken from patent US5552427A.
